# System: isolated guinea-pig heart
# test protocol: Coronary artery dilating activity (Rangendorf method, isolated guinea-pig heart)
# experimental conditions: 10 μg/heart; coronary blood flow examined for 2 minutes
Examples of compounds with documented maximum increased blood flow follow.
assay endpoint: maximum increased blood flow

[[record]]
mol = "Nc1cccc(OCCNCCC(=O)N2CCCSc3ccccc32)c1"
assay_endpoint = "maximum increased blood flow"
data_value = "4.6 mL"

[[record]]
mol = "O=C(CCNCCOc1ccc([N+](=O)[O-])cc1)N1CCCSc2ccccc21"
assay_endpoint = "maximum increased blood flow"
data_value = "4.2 mL"

[[record]]
mol = "Cc1cccc(C)c1OCCNCCC(=O)N1CCCSc2ccccc21"
assay_endpoint = "maximum increased blood flow"
data_value = "7.2 mL"

[[record]]
mol = "Cc1cc(C)c(OCCNCCC(=O)N2CCCSc3ccccc32)c(C)c1"
assay_endpoint = "maximum increased blood flow"
data_value = "11.3 mL"


----------
Listed below: LD50 values for each entry.
# test protocol: Acute toxicity in mice per os
# experimental conditions: mouse, in vivo, po
assay endpoint: LD50 (mg/kg)

[[record]]
mol = "Nc1ccccc1OCCNCCC(=O)N1CCCSc2ccccc21"
data_value = 374

[[record]]
mol = "CC(C)c1cccc(C(C)C)c1OCCNCCC(=O)N1CCCSc2ccccc21"
data_value = 1500


----------
# Tested on: Guinea-pig taenia caecum
# test protocol: Ca++-antagonistic activity (isolated guinea-pig taenia caecum)
# experimental conditions: Cavia porcellus, 0.05 h; Ca++-induced contraction of taenia caecum, Ca++-free Krebs Ringer; pretreatment with compound 3 minutes before; read-out: PA2 value (converted)
Use Satisfied when the recorded Kb is no lower than 200 nM; use Not satisfied when it is lower.

[[record]]
mol = "COc1ccc(OCCNCCC(=O)N2CCCSc3ccccc32)cc1"
category = "Satisfied"

[[record]]
mol = "O=C(CCNCCOc1ccc(Cl)cc1Cl)N1CCCSc2ccccc21"
category = "Not satisfied"

[[record]]
mol = "COc1cccc(OC)c1OCCNCCC(=O)N1CCCSc2ccccc21"
category = "Satisfied"

[[record]]
mol = "O=C(CCNCCOc1cccc([N+](=O)[O-])c1)N1CCCSc2ccccc21"
category = "Satisfied"

[[record]]
mol = "Cc1cccc(C)c1OCCNCCC(=O)N1CCCSc2ccccc21"
category = "Not satisfied"

[[record]]
mol = "Cc1cc(C)c(OCCNCCC(=O)N2CCCSc3ccccc32)c(C)c1"
category = "Not satisfied"

[[record]]
mol = "O=C(CCNCCSc1ccc([N+](=O)[O-])cc1)N1CCCSc2ccccc21"
category = "Not satisfied"

